- Protocol Description: Extraction of mono- and dibasic acids from 0.1M aqueous solution into toluene or MMA/toluene mixtures
- Type: physicochemical
- Condition Set: Fraction of MMA in MMA/Toluene solvent mixture 0.4; equal volume; in %
- Method: The following experimental conditions were used unless indicated otherwise:— • 0.1M Acids • 1:1 vol:vol aq:solvent • Room Temperature • 1 minutes agitation time; 5 min settling time • Solvent is toluene unless where stated • Analysis by HPLC Monobasic and dibasic acids likely to be present in aqueous solution following partial decomposition of mono and dicarboxylic acids expected to be found from decomposition of dibasic or tribasic acids were compared for their solubility in toluene. […]
With a cut-off of 60, any degree of extraction strictly below it is called label 1; any degree of extraction meeting it or above is called label 0.

Completed entries (count: 2):
INSERT INTO assay_data (compound, qualitative_label) VALUES
  ('CC(C)(O)C(=O)O [HIB, Hydroxyisobutyric Acid]', 'label 1'),
  ('C/C=C/C(=O)O', 'label 1');

Query: hey, is degree of extraction for C=C(CC(=O)O)C(=O)O lower than 60 or not?
Reply: label 1

Query: Consider CC(=O)C(=O)O . Does its degree of extraction lie strictly below 60?
Reply: label 1

Query: For this compound, is degree of extraction lower than 60? C/C(=C\C(=O)O)C(=O)O
Reply: label 1

Query: Please state whether degree of extraction is below 60 for C=C(C)C(=O)O
Reply: label 0

----------
Below, each entry is listed with its recorded degree of extraction.
- Protocol Description: Extraction of mono- and dibasic acids from 0.1M aqueous solution into toluene or MMA/toluene mixtures
- Type: physicochemical
- Condition Set: Fraction of MMA in MMA/Toluene solvent mixture 0.3; equal volume; in %
# respond with the number and nothing more

Look over these answered cases.
INSERT INTO measurements (compound, reported_measurement) VALUES
  ('C=C(CC(=O)O)C(=O)O', 0.81),
  ('CC(=O)C(=O)O', 0.7),
  ('C/C=C/C(=O)O', 53.62),
  ('CC(C)(O)C(=O)O [HIB, Hydroxyisobutyric Acid]', 6.38),
  ('C/C(=C\C(=O)O)C(=O)O', 8.26);

Read the next record carefully.
Query: Record request: degree of extraction value, item C=C(C)C(=O)O
Reply: 67.25

----------
- Protocol Description: Extraction of mono- and dibasic acids from 0.1M aqueous solution into toluene or MMA/toluene mixtures
- Type: physicochemical
- Condition Set: Fraction of MMA in MMA/Toluene solvent mixture 0.9; equal volume; in %
Please note: degree of extraction exactly at 20 is false (0). Only values below 20 get true (1).

Please review the entries below; each comes with its answer.
INSERT INTO assay_data (compound, qualitative_label) VALUES
  ('CC(=O)C(=O)O', 'true (1)'),
  ('C/C(=C\C(=O)O)C(=O)O', 'false (0)'),
  ('CC(C)(O)C(=O)O [HIB, Hydroxyisobutyric Acid]', 'false (0)'),
  ('C/C=C/C(=O)O', 'false (0)'),
  ('C=C(C)C(=O)O', 'false (0)');

We now examine a further compound.
Query: Please indicate whether the reported degree of extraction of C=C(CC(=O)O)C(=O)O is strictly below 20.
Reply: true (1)
